systemName: pSer413(Im) peptide (human)
Sequence (peptide, as listed by the source): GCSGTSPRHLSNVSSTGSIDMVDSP
assayInfo: SPR (Biacore 3000), antibody captured by anti-mouse antibody, peptide as analyte, single cycle kinetics
Non-standard residues stand in square brackets, D forms with d. No end group written: not given here. pS = N[C@@H](COP(=O)(O)O)C(=O)O
assayEndpoint: koff (s⁻¹)

* Ta1506 (antibody, V domains shown, also called Ta15 Series) VH: EVHLVESGGGLVQPKGSLKLSCAASGFAFNSFAMNWVRQAPGKALDWIAHIRSKTNNYVTFYADSVKGRFSISRDDSQSMVYLQMNNLQTEDTGIYYCVRRGPRDSWFGYWGQGTLVTVSA VL: GVLMTQIPLSLPVSLGDQASISCRSSQNIVHSNGNTYLEWYLQKPGQSPKVLIYTVSNRFSGVPDRFSGSGSGTDFTLKISRVEAEDLGVYYCFQGSHLPLTFGGGTKL | 0.00194
* Ta1508 (antibody, V domains shown, also called Ta15 Series) VH: EVHLVESGGGLVQPKGSLKLSCAASGFAFNSFAMNWVRQAPGKGLDWIAHIRSKTNNYVTFYADSVKGRFSISRDDSQSMVYLQMNNLQTEDTGIYYCVRRGPRDSWFGYWGQGTLVTVSA VL: VVLMTQTPLSLPVSLGDQASISCRSSQNIVHSNGNTYLEWYLQKPGQSPKVLIYTVSNRFSGVPDRFSGSGSGTDFTLKISRVEAEDLGVYYCFQGSHLPLTFGGGTKL | 0.00098
